Test system: CAF#3 (primary prostate cancer-associated fibroblasts of myCAF-like type)
procedure summary: drug sensitivity score (DSS2, normalised partial AUC of dose-response, 72 h CellTiter-Glo viability) (DSS (dimensionless)); higher = more sensitive (stronger growth inhibition / cytotoxicity); extreme values may be limits of the assay
drug sensitivity score for assorted molecules
endpoint label: drug sensitivity score

Nc1cccc2c1C(=O)N(C1CCC(=O)NC1=O)C2=O (stereo unspecified) [Pomalidomide] (tested concentration range 1-10000 nM)	0
CC(C)C[C@H](NC(=O)[C@H](Cc1ccccc1)NC(=O)c1cnccn1)B(O)O [Bortezomib] (tested concentration range 0.1-1000 nM)	26.9
CN(C)C(=O)c1cc2cnc(Nc3ccc(N4CCNCC4)cn3)nc2n1C1CCCC1 [Ribociclib] (tested concentration range 1-10000 nM)	2.9
CC(C)N(CCCNC(=O)Nc1ccc(C(C)(C)C)cc1)C[C@H]1O[C@@H](n2cc(Br)c3c(N)ncnc32)[C@H](O)[C@@H]1O [SGC0946] (tested concentration range 1-10000 nM)	0.5
CN(CC(=O)N(Cc1ccc(C2CCCCC2)cc1)c1ccc(C(=O)O)cc1)S(=O)(=O)c1c(F)c(F)c(F)c(F)c1F [SH-4-54] (tested concentration range 2.5-25000 nM)	5.4
COC[C@H](NC(=O)c1cnc(C)s1)C(=O)N[C@@H](COC)C(=O)N[C@@H](Cc1ccccc1)C(=O)[C@@]1(C)CO1 [Oprozomib] (tested concentration range 0.2-2500 nM)	10.3
CCC/C=C/C=C/C(=O)O[C@H]1/C(=C/C(=O)OC)C[C@H]2C[C@H]([C@@H](C)O)OC(=O)C[C@H](O)C[C@@H]3C[C@H](OC(C)=O)C(C)(C)[C@](O)(C[C@@H]4C/C(=C/C(=O)OC)C[C@H](/C=C/C(C)(C)[C@]1(O)O2)O4)O3 [Bryostatin 1] (tested concentration range 0-100 nM)	0.6
C[C@@]1(C(=O)Nc2ccc(F)nc2)CCCN1c1nc(Nc2cc(C3CC3)n[nH]2)c2cccn2n1 (tested concentration range 1-10000 nM)	9
C=CC(=O)Nc1cccc(Nc2nc(Nc3ccc(N4CCN(C(C)=O)CC4)cc3OC)ncc2C(F)(F)F)c1 [Rociletinib] (tested concentration range 0.5-5000 nM)	2.1
CO[C@@]12[C@H](COC(N)=O)C3=C(C(=O)C(C)=C(N)C3=O)N1C[C@@H]1N[C@@H]12 [Mitomycin C] (tested concentration range 1-10000 nM)	0
COc1cc2ncnc(Nc3cccc(Cl)c3F)c2cc1OC(=O)N1CCN(C)C[C@H]1C [AZD3759] (tested concentration range 0.1-1000 nM)	0.4
C=CC(=O)N1CCC(Oc2cc3c(Nc4ccc(Cl)c(Cl)c4F)ncnc3cc2OC)CC1 [Poziotinib] (tested concentration range 0.1-1000 nM)	0.3
CCCCCCCCc1ccc(CCC(N)(CO)CO)cc1 [Fingolimod] (tested concentration range 1-10000 nM)	5.2
CC[C@H](C)C(=O)O[C@H]1C[C@H](O)C=C2C=C[C@H](C)[C@H](CC[C@@H](O)C[C@@H](O)CC(=O)O)[C@H]21 [Pravastatin] (tested concentration range 1-10000 nM)	0
Cc1noc2c1-c1ccccc1C(c1ccc(Cl)cc1)=N[C@H]2CC(N)=O [CPI-0610] (tested concentration range 1-10000 nM)	8.4
COc1cccc2c1C(=O)c1c(O)c3c(c(O)c1C2=O)C[C@@](O)(C(=O)CO)C[C@@H]3O[C@H]1C[C@H](N)[C@H](O)[C@H](C)O1 [Doxorubicin] (tested concentration range 0.1-1000 nM)	0
Nc1ccn([C@@H]2O[C@H](CO)[C@@H](O)[C@@H]2O)c(=O)n1 [Cytarabine] (tested concentration range 1-10000 nM)	0
Nc1nc(OCc2cc(Br)cs2)c2[nH]cnc2n1 [Lomeguatrib] (tested concentration range 1-10000 nM)	0.1
Nc1nc(NC2CC2)cc(-c2cccc(Cl)c2Cl)n1 [TH588] (tested concentration range 2.5-25000 nM)	3
C[C@@H]1CN(C(=O)c2ccc(NC(=O)c3cc(O[C@H](C)c4c(Cl)ccc(F)c4Cl)c(N)nn3)cc2)C[C@H](C)N1 [Ensartinib] (tested concentration range 0.1-1000 nM)	2.7
COc1cccc2c1c(O)c(C(=O)N(C)c1ccc(C(F)(F)F)cc1)c(=O)n2C [Tasquinimod] (tested concentration range 1-10000 nM)	0

====

Reported drug sensitivity score values are given for each entry in this list.
Tested on: CAF#4 (primary prostate cancer-associated fibroblasts of iCAF-like type)
procedure summary: drug sensitivity score (DSS2, normalised partial AUC of dose-response, 72 h CellTiter-Glo viability) (DSS (dimensionless)); higher = more sensitive (stronger growth inhibition / cytotoxicity); extreme values may be limits of the assay
endpoint label: drug sensitivity score

COc1cc2nccc(Oc3ccc(NC(=O)Nc4cc(C)on4)c(Cl)c3)c2cc1OC [Tivozanib] (tested concentration range 1-10000 nM)	4.6
CC(=O)Nc1ccc(C(=O)Nc2ccccc2N)cc1 [Tacedinaline] (tested concentration range 0.1-1000 nM)	0.5
CC(=O)O[C@H]1C(=O)[C@@]2(C)[C@H]([C@H](OC(=O)c3ccccc3)[C@]3(O)C[C@H](OC(=O)[C@H](O)[C@@H](NC(=O)c4ccccc4)c4ccccc4)C(C)=C1C3(C)C)[C@]1(OC(C)=O)CO[C@@H]1C[C@@H]2O [Paclitaxel] (tested concentration range 0.1-1000 nM)	8.8
C=CC(=O)N1CCC[C@@H](n2nc(-c3ccc(Oc4ccccc4)cc3)c3c(N)ncnc32)C1 [Ibrutinib] (tested concentration range 0.1-1000 nM)	0
Cc1cccc(CC(=O)N2CCc3c2ccc(-c2cn(C)c4ncnc(N)c24)c3F)n1 (tested concentration range 0.2-2500 nM)	0

====

Test system: CAF#3
procedure summary: drug sensitivity score (DSS2, normalised partial AUC of dose-response, 72 h CellTiter-Glo viability) (DSS (dimensionless)); higher = more sensitive (stronger growth inhibition / cytotoxicity); extreme values may be limits of the assay
Entries and their measured drug sensitivity score follow.
endpoint label: drug sensitivity score

Cn1nnc2c(C(N)=O)ncn2c1=O [Temozolomide] (tested concentration range 10-100000 nM)	0
Cc1cn(-c2cc(NC(=O)c3ccc(C)c(Nc4nccc(-c5cccnc5)n4)c3)cc(C(F)(F)F)c2)cn1 [Nilotinib] (tested concentration range 1-10000 nM)	0
COc1cccc2c1C(=O)c1c(O)c3c(c(O)c1C2=O)C[C@@](O)(C(C)=O)C[C@@H]3O[C@H]1C[C@H](N)[C@H](O)[C@H](C)O1 [Daunorubicin] (tested concentration range 0.1-1000 nM)	6.4
NC(=O)c1cccc2cn(-c3ccc([C@@H]4CCCNC4)cc3)nc12 [Niraparib] (tested concentration range 1-10000 nM)	3.2
COc1cc2c(Oc3ccc(NC(=O)C4(C(=O)Nc5ccc(F)cc5)CC4)cc3F)ccnc2cc1OCCCN1CCOCC1 [Foretinib] (tested concentration range 0.1-1000 nM)	7.9

====

Tested on: CAF#4
procedure summary: drug sensitivity score (DSS2, normalised partial AUC of dose-response, 72 h CellTiter-Glo viability) (DSS (dimensionless)); higher = more sensitive (stronger growth inhibition / cytotoxicity); extreme values may be limits of the assay
Parameter: drug sensitivity score. Scope: all listed entries.
endpoint label: drug sensitivity score

CNC(=O)c1cccc2cc(Oc3ccnc4cc(OCC5(N)CC5)c(OC)cc34)ccc12 [Lucitanib] (tested concentration range 1-10000 nM)	7.4
CC(C)c1c(C(=O)Nc2ccccc2)c(-c2ccccc2)c(-c2ccc(F)cc2)n1CC[C@@H](O)C[C@@H](O)CC(=O)O [Atorvastatin] (tested concentration range 1-10000 nM)	3.5
O=C(/C=C/c1cccc(S(=O)(=O)Nc2ccccc2)c1)NO [Belinostat] (tested concentration range 1-10000 nM)	10
Cc1ccc(Nc2nccc(N(C)c3ccc4c(C)n(C)nc4c3)n2)cc1S(N)(=O)=O [Pazopanib] (tested concentration range 1-10000 nM)	5.4
COc1cc2c(Oc3ccc(NC(=O)C4(C(=O)Nc5ccc(F)cc5)CC4)cc3F)ccnc2cc1OCCCN1CCOCC1 [Foretinib] (tested concentration range 0.1-1000 nM)	6.9
CC(O)(CS(=O)(=O)c1ccc(F)cc1)C(=O)Nc1ccc(C#N)c(C(F)(F)F)c1 (configuration not stated) [Bicalutamide] (tested concentration range 1-10000 nM)	0
O=C(CCCCCCC(=O)Nc1ccccc1)NO [Vorinostat] (tested concentration range 1-10000 nM)	4.9
CCS(=O)(=O)Nc1ccc(Oc2ccc(F)cc2F)c(-c2cn(C)c(=O)c3[nH]ccc23)c1 [Mivebresib] (tested concentration range 1-10000 nM)	10.7
CCCCCOC(=O)Nc1nc(=O)n([C@@H]2O[C@H](C)[C@@H](O)[C@H]2O)cc1F [Capecitabine] (tested concentration range 1-10000 nM)	0
CCCC(CCC)C(=O)O [Valproic acid] (tested concentration range 100-1000000 nM)	0
Nc1cccc2c1C(=O)N(C1CCC(=O)NC1=O)C2=O (configuration not stated) [Pomalidomide] (tested concentration range 1-10000 nM)	0
CCc1cnn2c(NCc3ccc[n+]([O-])c3)cc(N3CCCC[C@H]3CCO)nc12 [Dinaciclib] (tested concentration range 0.1-1000 nM)	13
